# Tested on: CEM cells HIV-1 protection, formazan growth assay
# measurementProtocol: NCI AIDS Antiviral Assay
pEC50: −log10 of the molar value.
For each record, write down the corresponding pEC50.

Each compound below has a reported value. Please supply its pEC50.
1. CCOC(=O)C1Cc2ccc(C)cc2C1=O (stereo unspecified)
2. N#C/C(=C\c1ccc(Cl)cc1)c1nc(-c2cc3ccccc3oc2=O)cs1
3. O=C(NNC(=O)c1ccncc1)c1ccncc1
4. CC1(C)CCc2cc3c(cc2O1)OC(C)(C)C1c2cc(O)c(OCc4ccccc4)cc2OC31 (stereo unspecified)
5. Oc1ccc(/C=C\c2cnccn2)cc1
6. COC(=O)C12C3C4C1C1C2C3C41C(=O)N(C(C)C)C(C)C (stereo unspecified)
7. COc1cc(C)c(Br)c2ccc(Br)c(O)c12
8. COC(=O)N/N=C(/CCN1CCCC1)CC(c1ccccc1)c1c(O)c2ccccc2oc1=O (stereo unspecified)

Marked response:
["< 3.70", "< 3.82", "< 3.70", "< 3.70", "< 3.60", "< 3.06", "< 3.70", "< 4.05"]

Each compound below has a reported value. Please supply its pEC50.
1. COc1c2cc([N+](=O)[O-])cc1CNC(=O)CN1CCOCCOCCN(CCOCCOCC1)CC(=O)NC2
2. CC(C)(C)C1COP(=O)(OCc2ccccc2)OC1 (stereo unspecified)
3. CC(=O)Nc1ccc(C(=O)NN2C(=O)C(Cl)C2c2ccc([N+](=O)[O-])cc2)cc1 (stereo unspecified)

Marked response:
["< 4.00", "< 3.20", "< 3.70"]
